Listed below: pIC50 values for each entry.
target: full length active recombinant SYK enzyme (Homo sapiens, UniProt P43405); construct: full length active recombinant SYK enzyme (Millipore, Calif.); test: Inhibition of Syk tyrosine phosphorylation activity (LANCE TR-FRET kinase assay); settings: activity in the Syk assays, class symbols
pIC50: −log10 of the molar value.
measureName: pIC50

| compound | testSystem | testResult |
| --- | --- | --- |
| CC[C@@H](Nc1cnc(C(N)=O)c(Nc2ccc(-n3ccnc3)cc2)n1)C(N)=O [Example 80] | full length active recombinant SYK enzyme (Homo sapiens, UniProt P43405) | 8.00 to 9.00 |
| CC[C@@H](Nc1cnc(C(N)=O)c(Nc2ccc3ccncc3c2)n1)C(N)=O [Example 379] | full length active recombinant SYK enzyme (Homo sapiens, UniProt P43405) | 8.00 to 9.00 |
| CC(C)C[C@@H](Nc1cnc(C(N)=O)c(Nc2cccc(-n3nccn3)c2)n1)C(N)=O [Example 64] | full length active recombinant SYK enzyme (Homo sapiens, UniProt P43405) | 7.00 to 8.00 |
| CC(C)[C@@H](Nc1cnc(C(N)=O)c(Nc2cnc3ccncc3c2)n1)C(N)=O [Example 194] | full length active recombinant SYK enzyme (Homo sapiens, UniProt P43405) | 8.00 to 9.00 |
| CC[C@@H](Nc1cnc(C(N)=O)c(Nc2snc(C)c2I)n1)C(N)=O [Example 133] | full length active recombinant SYK enzyme (Homo sapiens, UniProt P43405) | 7.00 to 8.00 |
| NC(=O)c1ncc(N[C@@H]2CCCC[C@@H]2N)nc1Nc1cccc(C(F)(F)F)c1 [Example 199] | full length active recombinant SYK enzyme (Homo sapiens, UniProt P43405) | 8.00 to 9.00 |
| CC(C)(C)C[C@@H](Nc1cnc(C(N)=O)c(Nc2cnc3cccnc3c2)n1)C(N)=O [Example 246] | full length active recombinant SYK enzyme (Homo sapiens, UniProt P43405) | 8.00 to 9.00 |
| CN(C)C(=O)c1ccc(Nc2nc(N[C@@H]3CCCC[C@@H]3N)cnc2C(N)=O)cc1Cl [Example 279] | full length active recombinant SYK enzyme (Homo sapiens, UniProt P43405) | 7.00 to 8.00 |
| CCc1ccc(Nc2nc(N[C@@H]3CCCC[C@@H]3N)cnc2C(N)=O)cn1 [Example 350] | full length active recombinant SYK enzyme (Homo sapiens, UniProt P43405) | 8.00 to 9.00 |
| NC(=O)c1ncc(N[C@@H]2CCCC[C@@H]2N)nc1NC1CCOCC1 [Example 35] | full length active recombinant SYK enzyme (Homo sapiens, UniProt P43405) | < 6.00 |
| NC(=O)c1ncc(N[C@@H]2CCCC(F)(F)[C@@H]2N)nc1Nc1ccc2nccnc2c1 [Example 365] | full length active recombinant SYK enzyme (Homo sapiens, UniProt P43405) | 7.00 to 8.00 |
| CC[C@@H](Nc1cnc(C(N)=O)c(Nc2ccc3c(ccn3C)c2)n1)C(N)=O [Example 393] | full length active recombinant SYK enzyme (Homo sapiens, UniProt P43405) | 8.00 to 9.00 |
| CC[C@@H](Nc1cnc(C(N)=O)c(Nc2snc(C)c2Br)n1)C(N)=O [Example 132] | full length active recombinant SYK enzyme (Homo sapiens, UniProt P43405) | 7.00 to 8.00 |
| CC[C@@H](Nc1cnc(C(N)=O)c(Nc2ccnc(C)c2)n1)C(N)=O [Example 178] | full length active recombinant SYK enzyme (Homo sapiens, UniProt P43405) | 7.00 to 8.00 |
| NC(=O)c1ncc(N[C@@H]2CCCC(F)(F)[C@@H]2N)nc1Nc1ccnc(C2CC2)c1 [Example 346] | full length active recombinant SYK enzyme (Homo sapiens, UniProt P43405) | 8.00 to 9.00 |

---

target: full length active recombinant SYK enzyme (Homo sapiens); construct: full length active recombinant SYK enzyme (Millipore, Calif.); experiment: Inhibition of Syk tyrosine phosphorylation activity (LANCE TR-FRET kinase assay); details: activity in the Syk assays, class symbols
measureName: IC50

| structureString | testResult |
| --- | --- |
| CC[C@@H](Nc1cnc(C(N)=O)c(Nc2cc(C(C)C)ns2)n1)C(N)=O | 0.01 to 0.1 µM |
| NC(=O)c1ncc(N[C@@H]2CCCC[C@@H]2N)nc1Nc1cc(CO)ns1 | 0.001 to 0.01 µM |
| NC(=O)c1ncc(N[C@@H]2CCCC[C@@H]2N)nc1Nc1cc(-c2ncccn2)cc(-n2cccn2)c1 | 0.001 to 0.01 µM |
| NC(=O)c1ncc(Nc2cccc(-n3nccn3)c2)nc1N[C@@H]1CCCC[C@@H]1N | 0.01 to 0.1 µM |

---

biological target: full length active recombinant SYK enzyme (Homo sapiens, UniProt P43405); construct: full length active recombinant SYK enzyme (Millipore, Calif.); experiment: Inhibition of Syk tyrosine phosphorylation activity (LANCE TR-FRET kinase assay); settings: activity in the Syk assays, class symbols
pIC50: −log10 of the molar value.
measureName: pIC50

| structureString | testResult |
| --- | --- |
| NC(=O)c1ncc(N[C@@H]2CCCC(F)(F)[C@@H]2N)nc1Nc1ccc2cccnc2c1 | 7.00 to 8.00 |
| NC(=O)c1ncc(N[C@@H]2CCCC(F)(F)[C@@H]2N)nc1Nc1ccc2c(c1)CCOC2 | 8.00 to 9.00 |
| Cc1cc(Nc2nc(NC3(C(N)=O)CC3)cnc2C(N)=O)sn1 | 8.00 to 9.00 |
| Cc1cncc(Nc2nc(N[C@H](CC(C)C)C(N)=O)cnc2C(N)=O)c1 | 8.00 to 9.00 |
| CCOc1ccc(Nc2nc(N[C@@H]3CCCC[C@@H]3N)cnc2C(N)=O)cn1 | 8.00 to 9.00 |
| CC[C@@H](Nc1cnc(C(N)=O)c(Nc2cc(COC)ns2)n1)C(N)=O | 7.00 to 8.00 |
| C[C@@H](Nc1cnc(C(N)=O)c(Nc2cnc3ccc(F)cc3c2)n1)C(N)=O | 8.00 to 9.00 |

---

molecular target: full length active recombinant SYK enzyme (Homo sapiens, UniProt P43405); construct: full length active recombinant SYK enzyme (Millipore, Calif.); assay: Inhibition of Syk tyrosine phosphorylation activity (LANCE TR-FRET kinase assay); settings: activity in the Syk assays, class symbols
Items are presented alongside their recorded IC50.
measureName: IC50

| structureString | measureName | testResult |
| --- | --- | --- |
| NC(=O)c1ncc(N[C@@H]2CCCC[C@@H]2N)nc1Nc1cc(-c2ncccn2)cc(-c2ncccn2)c1 | IC50 | 1 to 10 nM |
| NC(=O)c1ncc(N[C@@H]2CCCC[C@@H]2N)nc1Nc1cc(F)c2ncccc2c1 | IC50 | < 1 nM |
| CC[C@@H](Nc1cnc(C(N)=O)c(Nc2cncc(OC)c2)n1)C(N)=O | IC50 | 100 to 1000 nM |
| CN1C(=O)COc2ccc(Nc3nc(N[C@@H]4CCCC[C@@H]4N)cnc3C(N)=O)cc21 | IC50 | 1 to 10 nM |
| NC(=O)c1ncc(N[C@@H]2CCCC[C@@H]2N)nc1Nc1cncc(Cl)c1 | IC50 | 1 to 10 nM |

---

biological target: full length active recombinant SYK enzyme (Homo sapiens, UniProt P43405); construct: full length active recombinant SYK enzyme (Millipore, Calif.); assay: Inhibition of Syk tyrosine phosphorylation activity (LANCE TR-FRET kinase assay); conditions: activity in the Syk assays, class symbols
pIC50: −log10 of the molar value.
The reader will find reported pIC50 values listed item by item below.
measureName: pIC50

| structureString | testResult |
| --- | --- |
| CS(=O)(=O)c1ccc(Nc2nc(N[C@@H]3CCCC(F)(F)[C@@H]3N)cnc2C(N)=O)cc1 | 7.00 to 8.00 |
| NC(=O)c1ncc(N[C@@H]2CCCC[C@@H]2N)nc1Nc1snc2ncccc12 | > 9.00 |
| CC[C@@H](Nc1cnc(C(N)=O)c(Nc2ccnc3ccccc23)n1)C(N)=O | 8.00 to 9.00 |
| Cc1nsc(Nc2nc(N[C@@H]3CCCC[C@@H]3N)cnc2C(N)=O)c1-c1cccnc1 | 6.00 to 7.00 |
| N#CCN1CC[C@@H](Nc2cnc(C(N)=O)c(Nc3cnc4ccncc4c3)n2)C1 | 6.00 to 7.00 |
| Cn1cc(Nc2nc(N[C@@H]3CCCC[C@@H]3N)cnc2C(N)=O)cn1 | 7.00 to 8.00 |
| COc1cncc(Nc2nc(N[C@@H]3CCCC[C@@H]3N)cnc2C(N)=O)c1 | 8.00 to 9.00 |
| NC(=O)c1ncc(N[C@@H]2CCCC[C@@H]2N)nc1Nc1cc(-n2nccn2)cc(-n2nccn2)c1 | 8.00 to 9.00 |
| CC[C@@H](Nc1cnc(C(N)=O)c(Nc2ccnc(C3CC3)c2)n1)C(N)=O | > 9.00 |
| NC(=O)c1ccc(Nc2nc(N[C@@H]3CCCC(F)(F)[C@@H]3N)cnc2C(N)=O)cc1 | 7.00 to 8.00 |
| CCC(=O)N1CCC(c2ccc(Nc3nc(N[C@@H]4CCCC[C@@H]4N)cnc3C(N)=O)cc2)CC1 | 8.00 to 9.00 |
| NC(=O)c1ncc(N[C@@H]2CCCC[C@@H]2N)nc1Nc1cccc(C(=O)N2CCC2)c1 | 7.00 to 8.00 |
| CN(C)C(=O)c1cc(Nc2nc(N[C@@H]3CCCC[C@@H]3N)cnc2C(N)=O)ccc1F | 6.00 to 7.00 |
| CS(=O)(=O)c1ccc(Nc2nc(N[C@H](CC3CC3)C(N)=O)cnc2C(N)=O)cc1 | 8.00 to 9.00 |
| CC(C)C[C@@H](Nc1cnc(C(N)=O)c(Nc2cccc(C(=O)N(C)C)c2)n1)C(N)=O | 6.00 to 7.00 |
| CC(C)C[C@@H](Nc1cnc(C(N)=O)c(Nc2ccc(C(=O)O)nc2)n1)C(N)=O | 6.00 to 7.00 |
| CC[C@@H](Nc1nc(Nc2snc(C)c2I)c(C(N)=O)nc1I)C(N)=O | 6.00 to 7.00 |
| CC(C)C[C@@H](Nc1cnc(C(N)=O)c(Nc2ccc(N(C)C)nc2)n1)C(N)=O | 7.00 to 8.00 |
| CC(C)C[C@@H](Nc1cnc(C(N)=O)c(Nc2cnc3ccccc3c2)n1)C(N)=O | 8.00 to 9.00 |
| COc1ccc(Nc2nc(N[C@H](CC3CC3)C(N)=O)cnc2C(N)=O)cc1OC | 8.00 to 9.00 |
| COc1ccc(Nc2nc(N[C@@H]3CCCC[C@@H]3N)cnc2C(N)=O)cc1OC | 8.00 to 9.00 |
| CC[C@@H](Nc1cnc(C(N)=O)c(Nc2cncc(Cl)c2)n1)C(N)=O | 7.00 to 8.00 |

The origin of these recorded values is patent US9359308B2.
